Listed next: entries and their corresponding Hepatic CLint in mouse liver microsomes.
# ASSAY REMARKS: Intrinsic clearance in mouse liver microsomes
# Assay type: in vitro ADME
# CONDITION NOTES: per mg protein

| MOLECULE | Hepatic CLint in mouse liver microsomes (µL/min/mg) |
| --- | --- |
| C[C@H]1Cc2c([nH]c3cc(Cl)ccc23)[C@@]2(N1)C(=O)Nc1ccc(Cl)cc12 [(+)-3] | 35 |
| C[C@H]1Cc2c([nH]c3ccccc23)[C@@]2(N1)C(=O)Nc1ccc(Cl)cc12 [(+)-1] | 770 |
| C[C@@H]1Cc2c([nH]c3cc(F)c(F)cc23)[C@]2(N1)C(=O)Nc1ccc(Cl)cc12 [(−)-6] | 36 |
| C[C@H]1Cc2c([nH]c3ccc(Cl)cc23)[C@@]2(N1)C(=O)Nc1ccc(Cl)cc12 [(+)-2] | 92 |
| C[C@@H]1Cc2c([nH]c3cc(Cl)c(F)cc23)[C@]2(N1)C(=O)Nc1ccc(Cl)cc12 [(−)-7] | 21 |
| C[C@H]1Cc2c([nH]c3cc(F)ccc23)[C@@]2(N1)C(=O)Nc1ccc(Cl)cc12 [(+)-5] | 26 |
| C[C@H]1Cc2c([nH]c3ccc(F)cc23)[C@@]2(N1)C(=O)Nc1ccc(Cl)cc12 [(+)-4] | 330 |
| C[C@H]1Cc2c([nH]c3cc(F)c(F)cc23)[C@@]2(N1)C(=O)Nc1ccc(Cl)cc12 [(+)-6] | 41 |

* * *

# ASSAY REMARKS: Oral PK and PK modeling of KAE609 in NMRI mice
# Assay type: in vivo, female NMRI mice
# CONDITION NOTES: female, NMRI, mouse, plasma, po, 5.3 mg/kg, single oral dose 5.3 mg/kg, infected NMRI mice
READOUT NAME: AUC(0-inf) (ng·h/mL)

| MOLECULE | SCALE UNIT | OBSERVED MEASUREMENT |
| --- | --- | --- |
| C[C@H]1Cc2c([nH]c3cc(Cl)c(F)cc23)[C@@]2(N1)C(=O)Nc1ccc(Cl)cc12 [(+)-7 (KAE609)] | ng·h/mL | 12600 |

* * *

# ASSAY REMARKS: In vivo PK after single p.o. and i.v. dosing in CD-1 mice
# Set-up: species or system female CD-1 mice
# CONDITION NOTES: female, mouse, plasma; oral 25 mg/kg vs i.v. 5 mg/kg, CD-1 mice; read-out: F (oral bioavailability)
# Method: The Institutional Animal Care and Use Committee (IACUC) of the Novartis Institute for Tropical Diseases (NITD), registered with the Agri-Food and Veterinary authority (AVA), Government of Singapore, reviewed and approved all animal experimental protocols. […] After vortexing and centrifuging the mixture, the supernatant was removed and 5 μl of sample analyzed. Analyte quantitation was performed by high-performance liquid chromatography coupled with tandem mass spectrometry (LC-MS/MS). […]

| MOLECULE | SCALE UNIT | bioavailability |
| --- | --- | --- |
| C[C@H]1Cc2c([nH]c3cc(Cl)c(F)cc23)[C@@]2(N1)C(=O)Nc1ccc(Cl)cc12 [(+)-7 (KAE609)] | % | 100 |

* * *

The entries below come with measured pIC50 values attached.
# System: P. berghei GFP ANKA PbGFPCON
# ASSAY REMARKS: In vitro (ex vivo) P. berghei maturation assay
# Format: cell-based, Plasmodium berghei
# CONDITION NOTES: 16 h + 8 h incubation; read-out: IC50 (mean ± SD) for P. berghei GFP ANKA PbGFPCON (n = 3)
pIC50: −log10 of the molar value.

| MOLECULE | TARGET OR TEST SYSTEM | pIC50 |
| --- | --- | --- |
| C[C@H]1Cc2c([nH]c3ccccc23)[C@@]2(N1)C(=O)Nc1ccc(Cl)cc12 [(+)-1] | P. berghei GFP ANKA PbGFPCON | 6.62 |
| C[C@H]1Cc2c([nH]c3ccc(F)cc23)[C@@]2(N1)C(=O)Nc1ccc(Cl)cc12 [(+)-4] | P. berghei GFP ANKA PbGFPCON | 6.98 |
| C[C@H]1Cc2c([nH]c3cc(Cl)ccc23)[C@@]2(N1)C(=O)Nc1ccc(Cl)cc12 [(+)-3] | P. berghei GFP ANKA PbGFPCON | 6.85 |
| C[C@H]1Cc2c([nH]c3cc(F)c(F)cc23)[C@@]2(N1)C(=O)Nc1ccc(Cl)cc12 [(+)-6] | P. berghei GFP ANKA PbGFPCON | 8.12 |
| C[C@@H]1Cc2c([nH]c3cc(Cl)c(F)cc23)[C@]2(N1)C(=O)Nc1ccc(Cl)cc12 [(−)-7] | P. berghei GFP ANKA PbGFPCON | 5.31 |
| C[C@H]1Cc2c([nH]c3ccc(Cl)cc23)[C@@]2(N1)C(=O)Nc1ccc(Cl)cc12 [(+)-2] | P. berghei GFP ANKA PbGFPCON | 7.12 |
| C[C@H]1Cc2c([nH]c3cc(F)ccc23)[C@@]2(N1)C(=O)Nc1ccc(Cl)cc12 [(+)-5] | P. berghei GFP ANKA PbGFPCON | 7.06 |
| C[C@@H]1Cc2c([nH]c3cc(F)c(F)cc23)[C@]2(N1)C(=O)Nc1ccc(Cl)cc12 [(−)-6] | P. berghei GFP ANKA PbGFPCON | 5.55 |
